# EXPERIMENTAL_TARGET: UniProtKB P56373
# Sequence (P56373 whole entry): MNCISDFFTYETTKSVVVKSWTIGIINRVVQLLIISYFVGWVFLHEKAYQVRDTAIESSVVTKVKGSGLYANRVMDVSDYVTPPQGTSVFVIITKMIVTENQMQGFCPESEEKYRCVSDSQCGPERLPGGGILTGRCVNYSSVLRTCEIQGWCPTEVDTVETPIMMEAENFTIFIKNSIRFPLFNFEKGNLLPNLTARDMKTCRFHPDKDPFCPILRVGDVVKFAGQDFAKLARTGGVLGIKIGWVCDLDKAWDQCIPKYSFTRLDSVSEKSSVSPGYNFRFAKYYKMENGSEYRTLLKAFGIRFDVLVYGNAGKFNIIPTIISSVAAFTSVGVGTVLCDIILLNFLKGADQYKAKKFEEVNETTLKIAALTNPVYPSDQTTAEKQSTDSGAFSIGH
# TEST_DESCRIPTION: Evaluation of human P2X3 receptor inhibitory activity (Fluo-3 calcium fluorescence, FDSS 3000, ATP stimulation);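 note: stimulus was 50 nM ATP with fluorescence followed for 3 min, and the response per well was peak post-ATP fluorescence divided by the reading at measurement start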
# Type: cell-based
# EXPERIMENTAL_SETUP: human P2X3 receptor, Test Example 1
REPORTED_ENDPOINT: log10 IC50 (log10 of the value in nM)

# MOLECULE_SMILES, log10 IC50
rows = [
    ("CCn1c(=O)[nH]/c(=N\\c2ccc(Oc3cccc(C(N)=O)n3)cc2)n(Cc2ccc(Cl)cn2)c1=O", 1.32),
    ("CNC(=O)Cn1c(=O)[nH]/c(=N\\c2ccc(Oc3ncccn3)cc2)n(Cc2ccc(Cl)cc2)c1=O", 1.54),
    ("O=C(O)c1cncc(Oc2ccc(/N=c3\\[nH]c(=O)n(C4CC4)c(=O)n3Cc3ccc(Cl)cc3)cc2)c1", 0.85),
    ("CCOC(=O)C1(Cn2c(=O)[nH]/c(=N\\c3ccc4oc(CC)c(C)c4c3)n(Cc3ccc(C)cc3)c2=O)CC1", 0.85),
    ("Cc1ccc(Cn2c(=O)n(C)c(=O)[nH]/c2=N\\c2ccc(Oc3cncc(C(N)=O)n3)cc2)cc1", 0.90),
    ("CCOC(=O)Cn1c(=O)[nH]/c(=N\\c2ccc(Oc3nccs3)cc2)n(Cc2ccc(Cl)cc2)c1=O", 0.85),
    ("CNC(=O)Cn1c(=O)[nH]/c(=N\\c2ccc(Oc3ncns3)cc2)n(Cc2ccc(Cl)cc2)c1=O", 0.85),
    ("CCc1cc2cc(/N=c3\\[nH]c(=O)n(CC(CO)CO)c(=O)n3Cc3ccc(Cl)cc3)ccc2o1", 0.90),
    ("Cc1cc(/N=c2\\[nH]c(=O)n([C@@H](C)[C@@H](C)C(=O)O)c(=O)n2Cc2ccc(Cl)cc2)ccc1OC(C)C", 1.28),
    ("NC(=O)CCn1c(=O)[nH]/c(=N\\c2ccc(Oc3cccc(F)n3)cc2)n(Cc2ccc(Cl)cc2)c1=O", 0.95),
    ("NC(=O)NC(=O)Cn1c(=O)[nH]/c(=N\\c2ccc(Oc3ccon3)cc2)n(Cc2ccc(Cl)cc2)c1=O", 0.48),
    ("Cn1c(=O)[nH]/c(=N\\c2ccc(Oc3cccc(C(N)=O)n3)cc2)n(Cc2ccc(Cl)cc2)c1=O", 0.70),
    ("CCn1c(=O)[nH]/c(=N\\c2ccc(Oc3ncc(C(=O)O)s3)cc2)n(Cc2ccc(F)cc2)c1=O", 1.58),
    ("CCOc1c(Cl)cc(/N=c2\\[nH]c(=O)n(C[C@H](C)C(=O)OC)c(=O)n2Cc2ccc(C)cc2)cc1Cl", 1.28),
    ("CO/N=C/c1ccc(/N=c2\\[nH]c(=O)n(C[C@H](C)C(=O)OC)c(=O)n2Cc2ccc(Cl)cc2)cc1F", 2.10),
    ("CCn1c(=O)[nH]/c(=N\\c2ccc(Oc3ccnnc3)cc2)n(Cc2ccc(Cl)cc2)c1=O", 0.60),
    ("CCn1c(=O)[nH]/c(=N\\c2ccc(Oc3ccnc(NCC(N)=O)c3)cc2)n(Cc2ccc(Cl)cc2)c1=O", 0.85),
    ("O=c1[nH]/c(=N\\c2ccc(Oc3nccs3)cc2)n(Cc2ccc(Cl)cc2)c(=O)n1C[C@@H](O)CO", 1.15),
    ("CC[C@@H](Cn1c(=O)[nH]/c(=N\\c2ccc(OC(C)C)c(C)c2)n(Cc2ccc(C)cc2)c1=O)C(=O)OC", 1.20),
    ("CCn1c(=O)[nH]/c(=N\\c2ccc(Oc3ccnc(C(=O)NC)c3)c(F)c2)n(Cc2ccc(Cl)cc2)c1=O", 0.30),
    ("O=C(Cn1c(=O)[nH]/c(=N\\c2ccc(Oc3cnsn3)cc2)n(Cc2ccc(Cl)cc2)c1=O)NCCO", 0.85),
    ("O=c1[nH]/c(=N\\c2ccc(Oc3ncccn3)cc2)n(Cc2ccc(Cl)cc2)c(=O)n1CCCO", 1.00),
    ("CNC(=O)Cn1c(=O)[nH]/c(=N\\c2ccc(Oc3nc(C)ns3)cc2)n(Cc2ccc(Cl)cc2)c1=O", 0.70),
    ("O=C(O)Cn1c(=O)[nH]/c(=N\\c2ccc(Oc3ccon3)cc2)n(Cc2ccc(Cl)cc2)c1=O", 2.57),
    ("O=C(O)Cn1c(=O)[nH]/c(=N\\c2ccc(Oc3cccc(F)n3)cc2)n(Cc2ccc(Cl)cc2)c1=O", 2.43),
    ("N#Cc1ccc(Oc2ccc(/N=c3\\[nH]c(=O)n(C[C@@H](O)CO)c(=O)n3Cc3ccc(Cl)cc3)cc2)cc1", 0.70),
    ("COC(=O)[C@@H](C)Cn1c(=O)[nH]/c(=N\\c2ccc(C(C)C)c(Cl)c2)n(Cc2ccc(C)cc2)c1=O", 2.65),
    ("O=c1[nH]/c(=N\\c2ccc(Oc3ccon3)cc2)n(Cc2ccc(Cl)cc2)c(=O)n1C(CO)CO", 2.27),
]
